The reported measurements were obtained from ChEMBL document CHEMBL3098107.

test-details: Cytotoxicity against human KB-3-1 cells assessed as cell survival after 24 hrs by MTT assay
Assay type: functional, cell-based
run-parameters: KB 3-1, 24 h
recorded-metric: pIC50
The meaning of pIC50 here: minus log10 of the concentration in molar units.

Prompt line: Query (compound): COC(=O)[C@]1(C)C=C2C3=CC(=O)[C@@H]4[C@@]5(C)C=C(C#N)C(=O)C(C)(C)[C@@H]5CC[C@@]4(C)[C@]3(C)CC[C@@]2(C)CC1 ; field requested: pIC50
Response line: 5.40

Prompt line: Please give the measured pIC50 for this compound: COC(=O)[C@@]1(C)CC[C@]2(C)CC[C@]3(C)[C@H](C(=O)C[C@@H]4[C@@]5(C)CCC(=O)C(C)(C)[C@@H]5CC[C@]43C)[C@@H]2C1
Response line: 4.60

Prompt line: Which pIC50 is reported for this compound? COC(=O)[C@@]1(C)CC[C@]2(C)CC[C@]3(C)C(=CC[C@@H]4[C@@]5(C)CC(C#N)=C(O)C(C)(C)[C@@H]5CC[C@]43C)[C@@H]2C1
Response line: 4.10

Prompt line: Query (compound): COC(=O)[C@@]1(C)CC[C@]2(C)CC[C@]3(C)C(=CC[C@@H]4[C@@]5(C)C/C(=C\O)C(=O)C(C)(C)[C@@H]5CC[C@]43C)[C@@H]2C1 ; field requested: pIC50
Response line: 4.40

Prompt line: Looking for the measured pIC50 of COC(=O)[C@@]1(C)CC[C@]2(C)CC[C@]3(C)C(=CC(=O)[C@@H]4[C@@]5(C)C=C(C#N)C(=O)C(C)(C)[C@@H]5CC[C@]43C)[C@@H]2C1 , can you help?
Response line: 4.70

Prompt line: Param item = COC(=O)[C@@]1(C)CC[C@]2(C)CC[C@]3(C)[C@H](C(=O)C[C@@H]4[C@@]5(C)CC[C@H](O)C(C)(C)[C@@H]5CC[C@]43C)[C@@H]2C1 ; retrieve measured pIC50.
Response line: 5.17

Prompt line: Which measured pIC50 value corresponds to COC(=O)[C@@]1(C)CC[C@]2(C)CC[C@]3(C)[C@H](C(=O)C[C@@H]4[C@@]5(C)C=C(C#N)C(=O)C(C)(C)[C@@H]5CC[C@]43C)[C@@H]2C1 ?
Response line: 5.26

Prompt line: // pIC50 lookup, key: COC(=O)[C@@]1(C)CC[C@]2(C)CC[C@]3(C)[C@H](C(=O)C=C4[C@@]5(C)C=C(C#N)C(=O)C(C)(C)[C@@H]5CC[C@]43C)[C@@H]2C1
Response line: 6.52
